The values you see were collected from the supplement of paper PMC8728848.

# Target Desc: Neu5Ac(a2-6)Gal(b1-4)GlcNAc(b1-2)Man(a1-6)[GlcNAc(b1-2)Man(a1-3)]Man(b1-4)GlcNAc(b1-4)GlcNAc
# Procedure Summary: glycan array binding signal (z-score within array); higher = stronger binding
# Recorded Conditions: glycan notation: IUPAC condensed, linker removed
About 410 targets per protein were measured; listed, in parts, are those with the strongest signals and a random draw of the rest.
Returns one of True or False; True when glycan array binding signal (z-score) is >= -0.1.

Reference set, count: 4
Binder	Answer Label
Clone730PsrP (Streptococcus pneumoniae) (protein) MDHHHHHHHHHHASENLYFQGAMVVGSQTAAATEATAKKVEEDRKKPASDYVASVTNVNLQSYAKRRKRSVDSIEQLLASIKNAAVFSGNTIVNGAPAINASLNIAKSETKVYTGEGVDSVYRVPIYYKLKVTNDGSKLTFTYTVTYVNPKTNDLGNISSMRPGYSIYNSGTSTQTMLTLGSDLGKPSGVKNYITDKNGRQVLSYNTSTMTTQGSGYTWGNGAQMNGFFAKKGYGLTSSWTVPITGTDTSFTFTPYAARTDRIGINYFNGGGKVVESSTT	False
AFL5 (Aspergillus fumigatus), Q4WB00 (protein) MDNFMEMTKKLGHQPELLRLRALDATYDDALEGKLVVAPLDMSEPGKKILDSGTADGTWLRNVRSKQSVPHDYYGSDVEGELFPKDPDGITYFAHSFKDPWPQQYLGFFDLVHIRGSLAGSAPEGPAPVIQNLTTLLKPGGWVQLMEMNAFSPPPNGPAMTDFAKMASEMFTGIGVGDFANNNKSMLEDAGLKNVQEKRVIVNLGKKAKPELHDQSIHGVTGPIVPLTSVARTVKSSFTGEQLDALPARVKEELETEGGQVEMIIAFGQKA	False
SefD (Salmonella enterica), Q9L6K6 (protein) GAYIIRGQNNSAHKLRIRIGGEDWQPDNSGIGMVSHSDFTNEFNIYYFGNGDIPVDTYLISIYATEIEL	False
SAG1 (Toxoplasma gondii), P13664 (protein) MSVSLHHFIISSGFLTSMFPKAVRRAVTAGVFAAPTLMSFLRCGVMASDPPLVANQVVTCPDKKSTAAVILTPTENHFTLKCPKTALTEPPTLAYSPNRQICPAGTTSSCTSKAVTLSSLIPEAEDSWWTGDSASLDTAGIKLTVPIEKFPVTTQTFVVGCIKGDDAQSCMVTVTVQARASSVVNNVARCSYGADSTLGPVKLSAEGPTTMTLVCGKDGVKVPQDNNQYCSGTTLTGCNEKSFKDILPKLTENPWQGNASSDKGATLTIKKEAFPAESKSVIIGCTGGSPEKHHCTVKLEFAGAAGSAKSAAGTASHVSIFAMVIGLIGSIAACVA	False

Now look at this entry.
Task: Check if glycan array binding signal (z-score) >= -0.1 (inclusive). Item: FimA-N2 (Actinomyces oris) (protein) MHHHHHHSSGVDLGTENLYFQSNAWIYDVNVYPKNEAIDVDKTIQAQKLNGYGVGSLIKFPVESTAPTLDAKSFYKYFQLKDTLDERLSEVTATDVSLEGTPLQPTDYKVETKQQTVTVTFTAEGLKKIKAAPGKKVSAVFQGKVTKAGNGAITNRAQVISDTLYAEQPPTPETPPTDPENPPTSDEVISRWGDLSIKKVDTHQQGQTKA
Result: True
